- target.desc: T1, glucose-dependent insulinotropic peptide (gastric inhibitory polypeptide) receptor (human, UniProt P48546 22-466)
- T1 sequence (looked up): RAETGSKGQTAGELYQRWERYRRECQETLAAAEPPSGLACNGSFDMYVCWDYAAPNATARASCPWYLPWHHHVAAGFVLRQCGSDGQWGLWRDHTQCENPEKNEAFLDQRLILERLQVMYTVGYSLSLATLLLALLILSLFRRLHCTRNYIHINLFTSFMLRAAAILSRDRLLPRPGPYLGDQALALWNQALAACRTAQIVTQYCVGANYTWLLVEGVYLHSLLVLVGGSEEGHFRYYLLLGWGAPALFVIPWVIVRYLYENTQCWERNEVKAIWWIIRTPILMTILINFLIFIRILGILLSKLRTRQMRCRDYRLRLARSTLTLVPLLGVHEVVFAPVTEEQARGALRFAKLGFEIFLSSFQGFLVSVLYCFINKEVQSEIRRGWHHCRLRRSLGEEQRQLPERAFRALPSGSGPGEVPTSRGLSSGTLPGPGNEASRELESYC
- test: cell-based or functional assay
Starred links: 1 amine or outer side, 2 acyl side, 3 side chain; linkers in the order of their positions; H or OH if unused. Non-standard residues stand in square brackets, D forms with d. Groups on a side chain read outwards from the residue. Primed or numbered codes have the meaning given here. No end group written: not given here. *: point of attachment. γGlu = O=C(O)[C@H](CCC(=O)[*:2])N[*:1]; Stearoyl = CCCCCCCCCCCCCCCCCC(=O)*; αMeF = C[C@](N)(Cc1ccccc1)C(=O)O; αMeK = C[C@](N)(CCCCN)C(=O)O; αMeS = C[C@](N)(CO)C(=O)O; PEG2′ = not defined here; Aib = CC(C)(N)C(=O)O
# Primary assay EC50 (cAMP), n1 annotations
Please reply with the bare figure in nM and do not write the unit itself.

Observe how each entry below is paired with its result.
{"binder": "H[Aib]EGS[αMeF]TSDV[αMeS]S[αMeF]LEGEAA[Aib]EFIK([PEG2′-PEG2′-γGlu-Stearoyl])WVVEGG-NH2 [SEQ ID NO 67]", "Primary assay EC50 (cAMP), n1 (nM)": 25.4}
{"binder": "H[Aib]EGS[αMeF]TSDV[αMeS]S[αMeF]LEGEAA[αMeK]EFIK([PEG2′-PEG2′-γGlu-Stearoyl])WVVEGG-NH2 [SEQ ID NO 68]", "Primary assay EC50 (cAMP), n1 (nM)": 25}

We next turn to a different binder, shown below.
GET /value?item= H[Aib]EGS[αMeF]TSDVSK([PEG2′-PEG2′-γGlu-Stearoyl])YLEGEAA[αMeK]E[αMeF]IA[αMeF]VVEGG-NH2 [SEQ ID NO 60] &field=Primary assay EC50 (cAMP), n1 returns 25
